Kindly supply the reported NanoBRET Fold Response values for the records listed here.
Target or test system: P2RY12 (Homo sapiens, UniProt Q9H244)
Construct: purchased Promega (in-house HiBiT-GPCR construct library, NanoBRET)
Sequence (Q9H244 whole entry, one chain of several): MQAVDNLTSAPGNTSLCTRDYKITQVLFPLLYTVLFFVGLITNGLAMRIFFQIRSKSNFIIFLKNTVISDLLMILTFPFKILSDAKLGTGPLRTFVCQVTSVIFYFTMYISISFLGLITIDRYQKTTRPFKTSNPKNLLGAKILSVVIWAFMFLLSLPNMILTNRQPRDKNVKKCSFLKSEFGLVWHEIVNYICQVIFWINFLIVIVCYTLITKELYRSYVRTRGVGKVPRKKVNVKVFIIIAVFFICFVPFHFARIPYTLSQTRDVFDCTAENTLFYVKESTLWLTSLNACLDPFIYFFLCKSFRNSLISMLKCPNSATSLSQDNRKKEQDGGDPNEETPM
Method notes: NanoBRET screen HiBiT-P2RY12 in HEK293
Assay type: binding
Experimental conditions: P2RY12; tracer 0.1μM
One number for each entry.

Solved entries:
>>> assay_value("N#CN=C(NCCCOc1cccc(CN2CCCCC2)c1)NCCNC(=O)CCOCCOCCOCCOCCNC(=O)CCc1ccc2n1[B-](F)(F)[N+]1=C(c3ccc[nH]3)C=CC1=C2")
0.94
>>> assay_value("CC(C)N(CC[C@H](c1ccccc1)c1cc(CCNC(=O)c2ccc(CNC(=O)CCc3ccc4n3[B-](F)(F)[N+]3=C(c5ccc[nH]5)C=CC3=C4)cc2)ccc1O)C(C)C")
1.08
>>> assay_value("Cc1nc2n(c(=O)c1CCN1CCC(c3noc4cc(F)ccc34)CC1)CCCC2OC(=O)NCCOCCOCCOCCOCCNC(=O)CCc1ccc2n1[B-](F)(F)[N+]1=C(c3ccc[nH]3)C=CC1=C2 (centres unmarked)")
1.05
>>> assay_value("Cc1cc2c(s1)Nc1ccccc1N=C2N1CCN(CCCNC(=O)CCOCCOCCOCCOCCNC(=O)CCc2ccc3n2[B-](F)(F)[N+]2=C(c4ccc[nH]4)C=CC2=C3)CC1")
0.98

Query: # get_value(readout='NanoBRET Fold Response', item= `O=C(CCOCCOCCOCCOCCNC(=O)CCc1ccc2n1[B-](F)(F)[N+]1=C(c3ccc[nH]3)C=CC1=C2)NCCCN1CCN(C2=Nc3ccccc3Oc3ccc(Cl)cc32)CC1` )
Reply: 0.99

###

Target or test system: GABBR2 (Homo sapiens, UniProt O75899)
Construct: purchased Promega (in-house HiBiT-GPCR construct library, NanoBRET)
Sequence (O75899 42-941): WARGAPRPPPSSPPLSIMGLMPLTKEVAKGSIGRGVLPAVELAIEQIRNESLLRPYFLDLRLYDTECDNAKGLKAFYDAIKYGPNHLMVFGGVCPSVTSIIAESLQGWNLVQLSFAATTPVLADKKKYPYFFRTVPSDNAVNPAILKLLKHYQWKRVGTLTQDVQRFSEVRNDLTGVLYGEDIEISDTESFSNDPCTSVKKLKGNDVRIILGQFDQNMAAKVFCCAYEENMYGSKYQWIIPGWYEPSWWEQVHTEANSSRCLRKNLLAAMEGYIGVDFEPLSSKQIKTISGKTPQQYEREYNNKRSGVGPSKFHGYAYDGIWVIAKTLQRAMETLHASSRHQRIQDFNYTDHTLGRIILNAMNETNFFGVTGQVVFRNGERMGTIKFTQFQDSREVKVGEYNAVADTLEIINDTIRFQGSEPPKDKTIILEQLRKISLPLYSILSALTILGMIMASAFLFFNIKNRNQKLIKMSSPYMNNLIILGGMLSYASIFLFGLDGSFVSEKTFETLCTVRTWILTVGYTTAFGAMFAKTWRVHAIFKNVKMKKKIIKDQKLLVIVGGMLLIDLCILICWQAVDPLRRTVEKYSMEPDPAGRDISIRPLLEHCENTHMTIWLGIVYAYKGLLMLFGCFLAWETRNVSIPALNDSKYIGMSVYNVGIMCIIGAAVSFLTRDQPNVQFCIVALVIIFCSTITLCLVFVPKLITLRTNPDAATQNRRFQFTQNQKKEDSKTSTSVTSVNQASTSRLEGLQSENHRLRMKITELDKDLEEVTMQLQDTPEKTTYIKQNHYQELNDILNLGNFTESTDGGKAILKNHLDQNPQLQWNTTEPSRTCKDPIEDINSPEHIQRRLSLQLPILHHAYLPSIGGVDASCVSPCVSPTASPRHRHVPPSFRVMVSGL
Method notes: NanoBRET screen HiBiT-GABBR2 in HEK293
Assay type: binding
Experimental conditions: GABBR2; tracer 0.1μM
Description: Each tracer candidate was screened across the entire library of HiBiT-GPCR constructs using NanoBRET as the detection modality. As depicted in Figure 4A, the specificity of interactions was evaluated through decrease in BRET due to competitive displacement of a bound tracer by excess parental compound. Each tracer was analyzed for binding to each HiBiT-GPCR fusion in the absence and in the presence of competing parental compound. […]
Endpoint name: NanoBRET Fold Response
One number for each entry.

Solved entries:
>>> assay_value("CC(C)N(CC[C@H](c1ccccc1)c1cc(CCNC(=O)CCOCCOCCOCCOCCNC(=O)CCc2ccc3n2[B-](F)(F)[N+]2=C(c4ccc[nH]4)C=CC2=C3)ccc1O)C(C)C [Tolterodine-2-NB590]")
1.15
>>> assay_value("COc1ccccc1N1CCN(CCCCN2C(=O)c3ccc(CNC(=O)CCOCCOCCOCCOCCNC(=O)CCc4ccc5n4[B-](F)(F)[N+]4=C(c6ccc[nH]6)C=CC4=C5)cc3C2=O)CC1 [NAN-190-2-NB590]")
0.95
>>> assay_value("O=C(CCc1ccc2n1[B-](F)(F)[N+]1=C(c3ccc[nH]3)C=CC1=C2)NCCOCCOCCNC(=O)OCCOCCN1CCN(C2=Nc3ccccc3Sc3ccccc32)CC1 [Quetiapine-a-2-NB590]")
1.06

Okay, here is my list. What is NanoBRET Fold Response for each of these?
1. COc1ccccc1N1CCN(CCCCN2C(=O)c3ccc(CNC(=O)CCOCCNC(=O)c4ccc(CNC(=O)CCc5ccc6n5[B-](F)(F)[N+]5=C(c7ccc[nH]7)C=CC5=C6)cc4)cc3C2=O)CC1 [NAN-190-3-NB590]
2. CCCn1c(=O)c2[nH]c(-c3ccc(OCC(=O)NCCNC(=O)CCOCCNC(=O)c4ccc(CNC(=O)CCc5ccc6n5[B-](F)(F)[N+]5=C(c7ccc[nH]7)C=CC5=C6)cc4)cc3)nc2n(CCC)c1=O [XAC-3-NB590]
3. Cc1nc2n(c(=O)c1CCN1CCC(c3noc4cc(F)ccc34)CC1)CCCC2OC(=O)NCCOCCOCCOCCOCCNC(=O)CCc1ccc2n1[B-](F)(F)[N+]1=C(c3ccc[nH]3)C=CC1=C2 (stereo not drawn) [Risperidone-2-NB590]

Reply:
1.03
1.02
1.07
